Hello, the source for this data is ChEMBL document CHEMBL3227974, in case you need it.

- Target desc: Thymidylate synthase (Mus musculus) (UniProt P07607)
- Sequence (P07607 whole entry, looked up): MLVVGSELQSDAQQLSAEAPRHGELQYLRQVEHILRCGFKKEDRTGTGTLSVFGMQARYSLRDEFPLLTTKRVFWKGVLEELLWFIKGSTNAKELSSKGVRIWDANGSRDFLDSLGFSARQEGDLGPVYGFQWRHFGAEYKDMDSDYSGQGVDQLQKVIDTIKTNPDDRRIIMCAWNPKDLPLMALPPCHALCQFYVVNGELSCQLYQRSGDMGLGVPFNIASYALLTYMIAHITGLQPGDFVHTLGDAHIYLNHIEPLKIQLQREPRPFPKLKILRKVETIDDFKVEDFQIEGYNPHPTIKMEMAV
- Procedure details: Inhibition of thymidylate synthetase in mouse L1210S cells
- Format: cell-based
Field: log(1/I50). Provide a value for each of the molecules that follow.
One number for each entry.

Would you please look over these solved cases?
CCOC(=O)CCC(NC(=O)c1ccc(CNc2ccc3nc(N)nc(O)c3c2C)cc1)C(=O)OCC (stereo not given)    5.12
CCOC(=O)c1ccc(CNc2ccc3nc(N)nc(O)c3c2C)cc1    4
CCOC(=O)c1ccc(CNc2ccc3nc(N)nc(O)c3c2)cc1    4
Cc1c(CNc2ccc(C(=O)NC(CCC(=O)O)C(=O)O)cc2)ccc2nc(N)nc(O)c12 (stereo not given)    7
CCOC(=O)CCC(NC(=O)c1ccc(NCc2ccc3nc(N)nc(N)c3c2C)cc1)C(=O)OCC (stereo not given)    5.12

Provide reported log(1/I50) for each item, in the same order as listed.
1. CCOC(=O)CCC(NC(=O)c1ccc(CNc2ccc3nc(N)nc(N)c3c2)cc1)C(=O)OCC (stereo not given)
2. CCOC(=O)CCC(NC(=O)c1ccc(N(C)Cc2ccc3nc(N)nc(O)c3c2)cc1)C(=O)OCC (stereo not given)
3. Cc1c(NCc2ccc(C(=O)O)cc2)ccc2nc(N)nc(O)c12
4. CCOC(=O)c1ccc(NCc2ccc3nc(N)nc(N)c3c2C)cc1
5. CCOC(=O)CCC(NC(=O)c1ccc(NCc2ccc3nc(N)nc(O)c3c2)cc1)C(=O)OCC (stereo not given)

Output line:
1: 6; 2: 5.12; 3: 4.05; 4: 4; 5: 6.6
